# measurement notes: Inhibition of chymotrypsin assessed as p-nitroaniline release measured for 15 mins using Bz-L-Tyr-pNA as a substrate by Dixon plot analysis
# test settings: read-out: Ki
attribute measured: Ki

Input: Give Ki for O=S(=O)(F)Cc1ccccc1 [PHENYLMETHYLSULFONYLFLUORIDE]
Output: 13 µM
